# reported inhibition at 1 µM; entries follow
Biological target: human Nav1.6 (hNav1.6) (Homo sapiens)
Construct: expressed in transfected cells; host or cells: HEK-293 (G418 selection)
Experiment: Modulation of late sodium current (INaL), PatchXpress electrophysiology, ATX-II evoked
Type: cell-based
Settings: HEK293; 1 μM compound; HEK-293 cells expressing recombinant human Nav1.6; late current evoked by 300 nM ATX-II; read-out: INaL v1.6 (1 μM, % Inhibition)

These recorded examples may help you get a feel for the data.
| COMPOUND | inhibition at 1 µM |
| --- | --- |
| Cc1cc(-c2cnc(O[C@@H](C)C(F)(F)F)c(F)c2)cc2cnnn12 [Compound 45] | > 70% |
| Fc1cc(-c2ccn3nncc3c2)cnc1OCC(F)(F)F [Compound 10] | 30 to 70% |
| COc1cc(OC(F)(F)F)ccc1-c1ccn2nnc(C)c2c1 [Compound 43] | > 70% |
| COCc1cc(OC(F)(F)F)ccc1-c1ccn2nncc2c1 [Compound 2] | > 70% |
| Fc1cc(-c2ccn3nncc3c2)cnc1OC1CC(F)(F)C1 [Compound 11] | > 70% |
| [2H]c1nnn2ccc(-c3cnc(OC(C)(C)C(F)(F)F)c(F)c3)cc12 [Compound 35] | > 70% |
| Cc1cc(-c2cnc(OCC(F)(F)F)c(F)c2)cc2cnnn12 [Compound 46] | 30 to 70% |
| [2H]C([2H])([2H])c1nnn2ccc(-c3cnc(OC(C)(C)C(F)(F)F)c(F)c3)cc12 [Compound 42] | > 70% |

Now let's try a different one.
Noted for CC(C)(Oc1ncc(-c2ccn3nncc3c2)cc1F)C(F)(F)F [Compound 24] : its inhibition at 1 µM reads > 70%

----------
Target: human Nav1.6 (hNav1.6) (Homo sapiens)
Construct: expressed in transfected cells; host or cells: HEK-293 (G418 selection)
Assay: Modulation of late sodium current (INaL), PatchXpress electrophysiology, ATX-II evoked
Assay type: cell-based
Settings: HEK293; 1 μM compound; HEK-293 cells expressing recombinant human Nav1.6; late current evoked by 300 nM ATX-II; read-out: INaL v1.6 (1 μM, % Inhibition)
Procedure: Functional characterization of exemplary compounds to modulate INaL expressed by the Nav1.6 voltage-gated sodium channel was accomplished using the PatchXpress™ high throughput electrophysiology platform (Molecular Devices, Sunnyvale, CA). […] INaL amplitude and stability were determined by analyzing the mean current amplitude over the final 20 ms of the test pulse. […]
ASSAY_READOUT: inhibition at 1 µM

Noted for COCc1nnn2ccc(-c3cnc(OC(C)(C)C(F)(F)F)c(F)c3)cc12 : its inhibition at 1 µM reads > 70%

Noted for [2H]c1nnn2ccc(-c3cnc(O[C@@H](C)C(F)(F)F)c(F)c3)cc12 : its inhibition at 1 µM reads > 70%

----------
Target: human Nav1.6 (hNav1.6) (Homo sapiens, UniProt Q9UQD0)
Construct: expressed in transfected cells; host or cells: HEK-293 (G418 selection)
Sequence (Q9UQD0 whole entry): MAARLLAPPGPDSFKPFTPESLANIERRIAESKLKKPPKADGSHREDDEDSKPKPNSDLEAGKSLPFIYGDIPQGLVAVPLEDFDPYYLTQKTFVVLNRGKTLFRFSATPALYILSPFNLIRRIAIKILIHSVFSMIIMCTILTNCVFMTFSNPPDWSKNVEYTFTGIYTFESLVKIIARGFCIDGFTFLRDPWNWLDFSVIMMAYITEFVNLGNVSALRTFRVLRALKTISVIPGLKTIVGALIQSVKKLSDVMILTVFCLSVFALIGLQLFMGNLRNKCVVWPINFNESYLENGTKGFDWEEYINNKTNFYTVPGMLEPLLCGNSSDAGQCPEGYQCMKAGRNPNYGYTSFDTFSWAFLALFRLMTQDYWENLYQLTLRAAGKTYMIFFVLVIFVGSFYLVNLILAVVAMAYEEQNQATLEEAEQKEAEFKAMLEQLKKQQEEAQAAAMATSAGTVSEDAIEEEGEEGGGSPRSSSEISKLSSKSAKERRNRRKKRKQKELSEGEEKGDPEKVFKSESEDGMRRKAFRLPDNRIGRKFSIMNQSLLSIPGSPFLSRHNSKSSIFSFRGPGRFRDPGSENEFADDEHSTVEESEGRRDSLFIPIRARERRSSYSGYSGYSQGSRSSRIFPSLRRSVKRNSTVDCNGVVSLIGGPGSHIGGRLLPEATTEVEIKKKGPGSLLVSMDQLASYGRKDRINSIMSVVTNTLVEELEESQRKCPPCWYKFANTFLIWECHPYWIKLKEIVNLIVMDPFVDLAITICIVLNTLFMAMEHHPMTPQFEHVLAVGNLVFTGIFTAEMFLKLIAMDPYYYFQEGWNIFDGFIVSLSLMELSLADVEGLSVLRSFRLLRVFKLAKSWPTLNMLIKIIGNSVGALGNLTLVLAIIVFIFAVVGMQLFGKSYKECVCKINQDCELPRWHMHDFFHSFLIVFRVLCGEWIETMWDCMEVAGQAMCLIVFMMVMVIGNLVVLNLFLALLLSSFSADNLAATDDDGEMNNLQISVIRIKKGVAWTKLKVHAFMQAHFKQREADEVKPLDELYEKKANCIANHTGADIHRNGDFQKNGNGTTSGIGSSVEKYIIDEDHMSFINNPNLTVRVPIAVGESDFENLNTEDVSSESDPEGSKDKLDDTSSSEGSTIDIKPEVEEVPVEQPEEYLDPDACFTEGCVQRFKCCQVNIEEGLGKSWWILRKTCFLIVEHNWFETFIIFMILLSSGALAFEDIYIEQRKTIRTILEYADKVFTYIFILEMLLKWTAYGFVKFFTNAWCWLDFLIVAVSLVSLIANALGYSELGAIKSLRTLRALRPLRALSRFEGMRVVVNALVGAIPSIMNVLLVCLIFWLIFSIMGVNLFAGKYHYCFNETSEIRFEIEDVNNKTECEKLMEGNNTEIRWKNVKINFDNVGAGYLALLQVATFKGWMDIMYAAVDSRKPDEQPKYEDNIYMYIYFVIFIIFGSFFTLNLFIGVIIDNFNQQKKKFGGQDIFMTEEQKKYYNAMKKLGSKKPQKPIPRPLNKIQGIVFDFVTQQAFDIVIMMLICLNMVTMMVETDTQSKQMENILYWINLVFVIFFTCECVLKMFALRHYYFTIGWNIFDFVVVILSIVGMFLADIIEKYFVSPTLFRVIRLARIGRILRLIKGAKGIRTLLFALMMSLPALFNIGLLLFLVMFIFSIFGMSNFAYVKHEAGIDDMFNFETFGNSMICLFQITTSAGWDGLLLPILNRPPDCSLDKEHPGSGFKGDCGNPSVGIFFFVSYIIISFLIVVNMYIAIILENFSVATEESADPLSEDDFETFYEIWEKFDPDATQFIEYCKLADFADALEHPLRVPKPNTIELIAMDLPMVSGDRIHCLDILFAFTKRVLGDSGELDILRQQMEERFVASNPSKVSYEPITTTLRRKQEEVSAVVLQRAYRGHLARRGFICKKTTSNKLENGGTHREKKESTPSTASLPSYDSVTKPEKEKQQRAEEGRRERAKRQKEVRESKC
Assay: Modulation of late sodium current (INaL), PatchXpress electrophysiology, ATX-II evoked
Assay type: cell-based
Conditions: HEK293; 1 μM compound; HEK-293 cells expressing recombinant human Nav1.6; late current evoked by 300 nM ATX-II; read-out: INaL v1.6 (1 μM, % Inhibition)
ASSAY_READOUT: inhibition at 1 µM

| MOLECULE | TEST_SYSTEM | inhibition at 1 µM |
| --- | --- | --- |
| FC1(F)C[C@@H]1c1ccc(-c2ccn3nncc3c2)cc1 (single isomer, unassigned) | human Nav1.6 (hNav1.6) (Homo sapiens, UniProt Q9UQD0) | 30 to 70% |
| [2H]c1nnn2ccc(-c3cnc(OC4(C(F)(F)F)CCC4)c(F)c3)cc12 | human Nav1.6 (hNav1.6) (Homo sapiens, UniProt Q9UQD0) | > 70% |
| Cc1nnn2ccc(-c3ccc(C4(C#N)CC4)cc3)cc12 | human Nav1.6 (hNav1.6) (Homo sapiens, UniProt Q9UQD0) | 30 to 70% |

Noted for CC(C)(Oc1ncc(-c2ccn3nnc(C(F)F)c3c2)cc1F)C(F)(F)F : its inhibition at 1 µM reads > 70%
